Test: physchem
Conditions: S
MEASUREMENT TYPE: solubility (µM)
Answers are plain numbers, in µM.

Hey, can you go through the list below and give me solubility for every item?
1. CC(C)CC(NC(=O)[C@H](Cc1cnc[nH]1)NC(=O)[C@H](Cc1ccccc1)NC(=O)OC(C)(C)C)C(O)CC(=O)N[C@@H](CC(C)C)C(=O)NCc1cc[n+]([O-])cc1 (stereo partly drawn)
2. CC(C)CC(NC(=O)[C@H](Cc1c[nH]cn1)NC(=O)[C@H](Cc1ccccc1)NC(=O)OC(C)(C)C)C(O)CC(=O)N[C@@H](CC(C)C)C(=O)NCc1ccccn1 (stereo partly drawn)
3. CC(C)CC(NC(=O)[C@H](Cc1c[nH]cn1)NC(=O)[C@H](Cc1ccccc1)NC(=O)OC(C)(C)C)C(O)CC(=O)N[C@@H](CC(C)C)C(=O)NC(Cc1cccc(CN)c1)C(=O)O (stereo partly drawn)

6500
380
390

====

Consider the following compounds; for each one, report its solubility.
Experiment: physchem
Conditions: phosphate buffer, pH 7.4, S
Description: Solubility (phosphate buffer, pH 7.4)
*1 amine or outer side, *2 acyl side, *3 side chain or, on linkers, in order; H or OH if unused. Where a SMILES comes first, the peptide text is derived from it. [ ]: non-standard residue; d: D form. The star is where a group is joined. ξ: configuration not given here. Sta = CC(C)C[C@H](N)[C@@H](O)CC(=O)O; X1 = CC(C)CC(N[*:1])C(O)CC(=O)[*:2]; ξPhg = NC(C(=O)O)c1ccccc1; Boc = CC(C)(C)OC(=O)*; NHBn = c1ccc(CN*)cc1

Please review the entries below; each comes with its answer.
COMPOUND	MEASUREMENT TYPE	VALUE REPORTED
CC(C)CC(NC(=O)[C@H](Cc1cnc[nH]1)NC(=O)[C@H](Cc1ccccc1)NC(=O)OC(C)(C)C)C(O)CC(=O)N[C@@H](CC(C)C)C(=O)NCc1cc[n+]([O-])cc1 (stereo not given in full)	solubility	4200 µM
CC(C)CC(NC(=O)[C@H](Cc1c[nH]cn1)NC(=O)[C@H](Cc1ccccc1)NC(=O)OC(C)(C)C)C(O)CC(=O)N[C@@H](CC(C)C)C(=O)NC(C(=O)O)c1ccccc1 (stereo not given in full) (Boc-FH[X1]L[ξPhg]-OH)	solubility	2200 µM

List solubility for every entry below, keeping the order given.
1. CC(C)CC(NC(=O)[C@H](Cc1c[nH]cn1)NC(=O)[C@H](Cc1ccccc1)NC(=O)OC(C)(C)C)C(O)CC(=O)N[C@@H](CC(C)C)C(=O)NCc1ccccn1 (stereo not given in full)
2. CC(C)C[C@H](NC(=O)C[C@H](O)[C@H](CC(C)C)NC(=O)[C@H](Cc1c[nH]cn1)NC(=O)[C@H](Cc1ccccc1)NC(=O)OC(C)(C)C)C(=O)NCc1ccccc1 (Boc-FH[Sta]L-NHBn)
3. CC(C)CC(NC(=O)[C@H](Cc1c[nH]cn1)NC(=O)[C@H](Cc1ccccc1)NC(=O)OC(C)(C)C)C(O)CC(=O)N[C@@H](CC(C)C)C(=O)NC(Cc1cccc(CN)c1)C(=O)O (stereo not given in full)

1. 180 µM
2. < 10 µM
3. 1500 µM

====

Test: Partition coefficient (logD) (octanol/citric acid-phosphate buffer)
Where a SMILES comes first, the peptide text is derived from it. [ ]: non-standard residue; d: D form. The star is where a group is joined. Sta = CC(C)C[C@H](N)[C@@H](O)CC(=O)O; Boc = CC(C)(C)OC(=O)*
MEASUREMENT TYPE: logD

Here are 3 compounds together with their reported answers.
COMPOUND	logD
CC(C)CC(NC(=O)[C@H](Cc1cnc[nH]1)NC(=O)[C@H](Cc1ccccc1)NC(=O)OC(C)(C)C)C(O)CC(=O)N[C@@H](CC(C)C)C(=O)NCc1cccc(CN)c1 (stereo not given in full)	1.89
CC(C)CC(NC(=O)[C@H](Cc1c[nH]cn1)NC(=O)[C@H](Cc1ccccc1)NC(=O)OC(C)(C)C)C(O)CC(=O)N[C@@H](CC(C)C)C(=O)N1CCN(Cc2ccccc2)CC1 (stereo not given in full)	> 2
CC(C)CC(NC(=O)[C@H](Cc1c[nH]cn1)NC(=O)[C@H](Cc1ccccc1)NC(=O)OC(C)(C)C)C(O)CC(=O)N[C@@H](CC(C)C)C(=O)NCCS(=O)(=O)O (stereo not given in full)	0.633

Batch of 2 compounds: report logD for each.
1. CC(C)CC(NC(=O)[C@H](Cc1c[nH]cn1)NC(=O)[C@H](Cc1ccccc1)NC(=O)OC(C)(C)C)C(O)CC(=O)N[C@@H](CC(C)C)C(=O)NCCN=C(N)N (stereo not given in full)
2. CC(C)C[C@H](NC(=O)C[C@H](O)[C@H](CC(C)C)NC(=O)[C@H](Cc1c[nH]cn1)NC(=O)[C@H](Cc1ccccc1)NC(=O)OC(C)(C)C)C(=O)N[C@@H](Cc1ccccc1)C(N)=O (Boc-FH[Sta]LF-NH2)

1. 0.322
2. > 2

====

For each entry below, report its solubility value.
Test: physchem
Details: phosphate buffer, pH 7.4, S
Where a SMILES comes first, the peptide text is derived from it. [ ]: non-standard residue; d: D form. The star is where a group is joined. Sta = CC(C)C[C@H](N)[C@@H](O)CC(=O)O; Boc = CC(C)(C)OC(=O)*

Study these solved cases before continuing.
COMPOUND	solubility
CC(C)CC(NC(=O)[C@H](Cc1c[nH]cn1)NC(=O)[C@H](Cc1ccccc1)NC(=O)OC(C)(C)C)C(O)CC(=O)N[C@@H](CC(C)C)C(=O)N1CCN(Cc2ccccc2)CC1 (stereo not given in full)	< 10 µM
CC(C)C[C@H](NC(=O)CC(O)C(CC1CCCCC1)NC(=O)[C@H](Cc1c[nH]cn1)NC(=O)[C@H](Cc1ccccc1)NC(=O)OC(C)(C)C)C(=O)NCc1cccc(CN=C(N)N)c1 (stereo not given in full)	40 µM
CC(C)C[C@H](NC(=O)C[C@H](O)[C@H](CC(C)C)NC(=O)[C@H](Cc1c[nH]cn1)NC(=O)[C@H](Cc1ccccc1)NC(=O)OC(C)(C)C)C(=O)N[C@@H](Cc1ccccc1)C(N)=O (Boc-FH[Sta]LF-NH2)	< 20 µM

Go through the items and report each one's solubility.
1. CC(C)CC(NC(=O)[C@H](Cc1c[nH]cn1)NC(=O)[C@H](Cc1ccccc1)NC(=O)OC(C)(C)C)C(O)CC(=O)N[C@@H](CC(C)C)C(=O)NCCS(=O)(=O)O (stereo not given in full)
2. CC(C)CC(NC(=O)[C@H](Cc1cnc[nH]1)NC(=O)[C@H](Cc1ccccc1)NC(=O)OC(C)(C)C)C(O)CC(=O)N[C@@H](CC(C)C)C(=O)NCCCN(CCO)CCO (stereo not given in full)

> 11000 µM
4300 µM

====

Assay: physchem
Conditions: phosphate buffer, pH 7.4, S
Exercise: state measured solubility for each of the compounds provided.
One number for each entry, in µM.

Solved entries:
COMPOUND	READING UNIT	solubility
CC(C)CC(NC(=O)[C@H](Cc1c[nH]cn1)NC(=O)[C@H](Cc1ccccc1)NC(=O)OC(C)(C)C)C(O)CC(=O)N[C@@H](CC(C)C)C(=O)NCCN=C(N)N (stereo partly specified)	µM	11000
CC(C)CC(NC(=O)[C@H](Cc1cnc[nH]1)NC(=O)[C@H](Cc1ccccc1)NC(=O)OC(C)(C)C)C(O)CC(=O)N[C@@H](CC(C)C)C(=O)NCc1cccc(OCC(=O)O)c1 (stereo partly specified)	µM	1800
CC(C)C[C@H](NC(=O)CC(O)C(CC1CCCCC1)NC(=O)[C@H](Cc1cnc[nH]1)NC(=O)[C@H](Cc1ccccc1)NC(=O)OC(C)(C)C)C(=O)NCc1cccc(OCC(=O)O)c1 (stereo partly specified)	µM	210
CC(C)CC(NC(=O)[C@H](Cc1c[nH]cn1)NC(=O)[C@H](Cc1ccccc1)NC(=O)OC(C)(C)C)C(O)CC(=O)N[C@@H](CC(C)C)C(=O)NCc1ccncc1 (stereo partly specified)	µM	340

Please give the documented solubility of CC(C)CC(NC(=O)[C@H](Cc1cnc[nH]1)NC(=O)[C@H](Cc1ccccc1)NC(=O)OC(C)(C)C)C(O)CC(=O)N[C@@H](CC(C)C)C(=O)NCCN (stereo partly specified) 4900

These entries and their values trace back to ChEMBL document CHEMBL1123973.
